// provenance: patent US10543212B2

Entries and their measured pIC50 follow.
targetSystem: Full-length, GST-tagged, human CaMKIIδ (Homo sapiens, UniProt Q13557)
Construct: Full-Length, Glutathione-S-Transferase(GST)-Tagged, Human CaMKIIδ was purchased from Carna Biosciences; purchased Carna Biosciences 02-111
Sequence (Q13557 1-478 isoform Q13557-12): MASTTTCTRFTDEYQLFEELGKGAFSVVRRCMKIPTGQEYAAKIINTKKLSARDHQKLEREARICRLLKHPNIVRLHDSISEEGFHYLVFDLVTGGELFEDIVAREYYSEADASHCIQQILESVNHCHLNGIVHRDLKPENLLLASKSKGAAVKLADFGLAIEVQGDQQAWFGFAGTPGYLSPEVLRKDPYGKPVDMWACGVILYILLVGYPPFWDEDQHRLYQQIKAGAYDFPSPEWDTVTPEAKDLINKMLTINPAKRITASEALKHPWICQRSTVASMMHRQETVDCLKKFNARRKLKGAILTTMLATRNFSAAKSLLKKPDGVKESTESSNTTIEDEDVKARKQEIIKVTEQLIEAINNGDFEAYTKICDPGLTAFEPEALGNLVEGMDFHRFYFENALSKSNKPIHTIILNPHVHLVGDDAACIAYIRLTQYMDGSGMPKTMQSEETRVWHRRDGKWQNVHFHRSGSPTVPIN
assayNotes: CaMKIIδ binding assay (TR-FRET with BODIPY-labeled probe ligand)
conditionParameters: Table 2; activity class for CaMKIIδ
pIC50: −log10 of the molar value.
readoutKind: pIC50

- compound: "C[C@@H](Cn1cnnn1)Oc1cc(-c2cnc(Nc3cn(C4CNC4)nc3C(F)(F)F)nc2)ccc1Cl [Example 697]"
  recordedResult: "> 8.00"
- compound: "C[C@@H](Cn1cnnn1)Oc1cc(-c2cnc(Nc3cn(C4CCN(C5CCOCC5)CC4)nc3OCC(F)(F)F)nc2)ccc1Cl [Example 677]"
  recordedResult: "> 8.00"
- compound: "CCc1nn(C2CCN(C3CCOCC3)CC2)cc1Nc1ncc(-c2ccc(Cl)c(O[C@@H](C)Cn3cnnn3)c2)cn1 [Example 632]"
  recordedResult: "> 8.00"
- compound: "C[C@@H](Cn1cnnn1)Oc1cc(-c2cnc(Nc3cn(CC4CCCN4)nc3C(F)(F)F)nc2)ccc1Cl (stereo partly drawn) [Example 602]"
  recordedResult: "> 8.00"
- compound: "COc1cc(N2CCCN(C3CCOCC3)CC2)ccc1Nc1ncc(-c2ccc(Cl)c(O[C@@H](C)Cn3cnnn3)c2)cn1 [Example 693]"
  recordedResult: "> 8.00"
- compound: "C[C@@H](Cn1cnnn1)Oc1cc(-c2cnc(Nc3cn(CCOC(F)(F)F)nc3C(F)(F)F)nc2)ccc1Cl [Example 727]"
  recordedResult: "7.00 to 8.00"

---

targetSystem: Full-length, GST-tagged, human CaMKIIδ (Homo sapiens)
Construct: Full-Length, Glutathione-S-Transferase(GST)-Tagged, Human CaMKIIδ was purchased from Carna Biosciences; purchased Carna Biosciences 02-111
assayNotes: CaMKIIδ binding assay (TR-FRET with BODIPY-labeled probe ligand)
conditionParameters: CaMKIIδ binding assay; activity class per Table 2
pIC50: −log10 of the molar value.
readoutKind: pIC50

- compound: "CC(Cn1cnnn1)Oc1cc(-c2cnc(Nc3cn(CC4(O)CCC(N5CCOCC5)CC4)nc3OCC(F)(F)F)nc2)ccc1Cl (centres unmarked) [Example 912]"
  readoutKind: "pIC50"
  recordedResult: "> 8.00"
- compound: "C[C@@H](Cn1cnnn1)Oc1cc(-c2cnc(Nc3cn(C4(C(=O)O)CCC4)nc3OCC(F)(F)F)nc2)ccc1Cl [Example 916]"
  readoutKind: "pIC50"
  recordedResult: "7.00 to 8.00"
- compound: "CC(C)c1nn(C2CC3(C2)CN(C2(C)CCOCC2)C3)cc1Nc1ncc(-c2ccc(Cl)c(O[C@@H](C)Cn3cnnn3)c2)cn1 [Example 960]"
  readoutKind: "pIC50"
  recordedResult: "> 8.00"
- compound: "CC(C)c1nn(C2CC3(CNC3)C2)cc1Nc1ncc(-c2ccc(Cl)c(O[C@@H](C)Cn3cnnn3)c2)cn1 [Example 934]"
  readoutKind: "pIC50"
  recordedResult: "> 8.00"
- compound: "C[C@@H](Cn1cnnn1)Oc1cc(-c2cnc(Nc3cn([C@H]4C[C@H](NC(=O)OC(C)(C)C)C4)nc3OCC(F)(F)F)nc2)ccc1Cl [Example 940]"
  readoutKind: "pIC50"
  recordedResult: "7.00 to 8.00"
- compound: "CCn1ncc(Nc2ncc(-c3ccc(Cl)c(O[C@@H](C)Cn4cnnn4)c3)cn2)c1C(=O)N1CCC(N2CCOCC2)CC1 [Example 880]"
  readoutKind: "pIC50"
  recordedResult: "≤ 7.00"
- compound: "C[C@@H](Cn1cnnn1)Oc1cc(-c2cnc(Nc3cn(CC4(O)CCN(C5CCOCC5)CC4)nc3OCC(F)(F)F)nc2)ccc1Cl [Example 909]"
  readoutKind: "pIC50"
  recordedResult: "> 8.00"
- compound: "C[C@@H](Cn1cnnn1)Oc1cc(-c2cnc(Nc3cn(C4CC5(C4)CN(C4CCOCC4)C5)nc3OCC(F)(F)F)nc2)ccc1C(F)F [Example 939]"
  readoutKind: "pIC50"
  recordedResult: "> 8.00"
- compound: "[2H]C1(N2CC3(CC(n4cc(Nc5ncc(-c6ccc(Cl)c(O[C@@H](C)Cn7cnnn7)c6)cn5)c(OCC(F)(F)F)n4)C3)C2)CCOCC1 [Example 944]"
  readoutKind: "pIC50"
  recordedResult: "> 8.00"
- compound: "C[C@@H](Cn1cnnn1)Oc1cc(-c2cnc(Nc3cn(CCNC(N)=O)nc3C(F)(F)F)nc2)ccc1Cl [Example 887]"
  readoutKind: "pIC50"
  recordedResult: "7.00 to 8.00"
- compound: "C[C@@H](Cn1cnnn1)Oc1cc(-c2cnc(Nc3cn([C@H]4C[C@H](N5CCOCC5)C4)nc3OCC(F)(F)F)nc2)ccc1Cl [Example 943]"
  readoutKind: "pIC50"
  recordedResult: "> 8.00"
- compound: "CC(C)c1nn(C2CC3(C2)CN(C2CCOCC2)C3)cc1Nc1ncc(-c2ccc(Cl)c(O[C@@H](C)Cn3cnnn3)c2)cn1 [Example 936]"
  readoutKind: "pIC50"
  recordedResult: "> 8.00"
- compound: "C[C@@H](Cn1cnnn1)Oc1cc(-c2cnc(Nc3cn(-c4cn[nH]c4)nc3C(F)(F)F)nc2)ccc1Cl [Example 890]"
  readoutKind: "pIC50"
  recordedResult: "7.00 to 8.00"
- compound: "C[C@@H](Cn1cnnn1)Oc1cc(-c2cnc(Nc3cn(C4(CO)CCC4)nc3OCC(F)(F)F)nc2)ccc1Cl [Example 914]"
  readoutKind: "pIC50"
  recordedResult: "> 8.00"
- compound: "CC(Cn1cnnn1)Oc1cc(-c2cnc(Nc3cn(CC4(O)CCC(O)CC4)nc3OCC(F)(F)F)nc2)ccc1Cl (centres unmarked) [Example 907]"
  readoutKind: "pIC50"
  recordedResult: "> 8.00"
- compound: "C[C@@H](Cn1cnnn1)Oc1cc(-c2cnc(Nc3cn(C4CC5(C4)CN(C4CCOCC4)C5)nc3C(F)(F)C(F)(F)F)nc2)ccc1Cl [Example 959]"
  readoutKind: "pIC50"
  recordedResult: "> 8.00"
- compound: "COc1ccc(Cn2cc(Nc3ncc(-c4ccc(Cl)c(O[C@@H](C)Cn5cnnn5)c4)cn3)c(OCC(F)(F)F)n2)cn1 [Example 926]"
  readoutKind: "pIC50"
  recordedResult: "> 8.00"
- compound: "C[C@@H](Cn1cnnn1)Oc1cc(-c2cnc(Nc3cn(C4CC5(C4)CN(C4CCCOCC4)C5)nc3OCC(F)(F)F)nc2)ccc1Cl (some centres unmarked) [Example 981]"
  readoutKind: "pIC50"
  recordedResult: "> 8.00"
- compound: "C[C@@H](Cn1cnnn1)Oc1cc(-c2cnc(Nc3cn(C4(C(N)=O)CCC4)nc3OCC(F)(F)F)nc2)ccc1Cl [Example 917]"
  readoutKind: "pIC50"
  recordedResult: "> 8.00"
- compound: "C[C@@H](Cn1cnnn1)Oc1cc(-c2cnc(Nc3cn([C@H]4C[C@H](NC5CCOCC5)C4)nc3OCC(F)(F)F)nc2)ccc1Cl [Example 942]"
  readoutKind: "pIC50"
  recordedResult: "> 8.00"
- compound: "C[C@@H](Cn1cnnn1)Oc1cc(-c2cnc(Nc3cn(CC4(O)CCOCC4)nc3OCC(F)(F)F)nc2)ccc1Cl [Example 886]"
  readoutKind: "pIC50"
  recordedResult: "> 8.00"
- compound: "C[C@@H](Cn1cnnn1)Oc1cc(-c2cnc(Nc3cn([C@@H]4CCN(C5CCC5)C[C@H]4O)nc3C(F)(F)F)nc2)ccc1Cl (mixture of isomers) [Example 898]"
  readoutKind: "pIC50"
  recordedResult: "> 8.00"
- compound: "CC(C)c1nn(C2CC3(C2)CN(C2COCOC2)C3)cc1Nc1ncc(-c2ccc(Cl)c(O[C@@H](C)Cn3cnnn3)c2)cn1 [Example 1013]"
  readoutKind: "pIC50"
  recordedResult: "> 8.00"
- compound: "C[C@@H](Cn1cnnn1)Oc1cc(-c2cnc(Nc3cn(C(C)(C)C(=O)N4CCOCC4)nc3OCC(F)(F)F)nc2)ccc1Cl [Example 895]"
  readoutKind: "pIC50"
  recordedResult: "7.00 to 8.00"
- compound: "C[C@@H](Cn1cnnn1)Oc1cc(-c2cnc(Nc3cn(CC4(O)CCC5(CC4)OCCO5)nc3OCC(F)(F)F)nc2)ccc1Cl [Example 899]"
  readoutKind: "pIC50"
  recordedResult: "> 8.00"
- compound: "C[C@@H](Cn1cnnn1)Oc1cc(-c2cnc(Nc3cn(C4CC5(CNC5)C4)nc3OCC(F)(F)F)nc2)ccc1Cl [Example 925]"
  readoutKind: "pIC50"
  recordedResult: "> 8.00"

---

targetSystem: Human full-length CaMKIIδ (Homo sapiens)
Construct: Human full-length CaMKIIδ (Cat #02-111) was obtained from Carna Biosciences; GST; purchased Carna Biosciences 02-111
assayNotes: Human CaMKII enzyme inhibition assay (radiometric kinase assay)
Format: biochemical
conditionParameters: 3 μM compound; 500 nM ATP; 0.5 nM CaMKIIδ; read-out: CaMKIIδ inhibitory activity (%) at 3 μM
Method: In Vitro CaMKIIδ Inhibitory Activity was Evaluated by an Enzyme Assay. Human CaMKII Enzyme Inhibition Assay Kinase assay for CaMKIIs was performed using the radiometric assay. […] After incubating the enzyme, peptide, and compounds for 5 min, kinase reactions were initiated by adding ATP, followed by incubation for 60 min at room temperature in a total volume of 50 μL. […] The radioactivity was counted by a TopCount scintillation counter (PerkinElmer). […]

- smilesInput: "C[C@@H](Cn1ncnn1)Oc1cc(-c2cnc(Nc3cnn(C)c3)nc2)ccc1C#N"
  u: "%"
  inhibition at 3 µM: 93
- smilesInput: "COc1cc(N2CCC(N3CCOCC3)CC2)ccc1Nc1ncc(-c2ccc(C#N)c(O[C@@H](C)Cn3ccnc3)c2)cn1"
  u: "%"
  inhibition at 3 µM: 98
- smilesInput: "COc1cc(N2CCC(N3CCNCC3)CC2)ccc1Nc1ncc(-c2ccc(C#N)c(O[C@@H](C)Cn3cnnn3)c2)cn1"
  u: "%"
  inhibition at 3 µM: 99
- smilesInput: "COc1ccc(N2CCC(N3CCOCC3)CC2)cc1Nc1ncc(-c2ccc(C#N)c(O[C@@H](C)Cn3cnnn3)c2)cn1"
  u: "%"
  inhibition at 3 µM: 99
- smilesInput: "COc1cc(N2CCC(N3CCOCC3)CC2)ccc1Nc1ncc(-c2ccc(C#N)c(O[C@@H](C)Cn3cnnc3)c2)cn1"
  u: "%"
  inhibition at 3 µM: 98
- smilesInput: "COc1cc(C(=O)N2CCOCC2)ccc1Nc1ncc(-c2ccc(C#N)c(O[C@@H](C)Cn3cncn3)c2)cn1"
  u: "%"
  inhibition at 3 µM: 97
- smilesInput: "COc1nc(N2CCC(N3CCOCC3)CC2)ncc1Nc1ncc(-c2ccc(C#N)c(O[C@@H](C)Cn3cnnn3)c2)cn1"
  u: "%"
  inhibition at 3 µM: 98
